Item-by-item account of %Inh
# Test system: LCK
# recorded.conditions: concentration: 1 μM, replicates: in singlicate; n = 1;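 note: KINOMEscan kinase panel screen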

molecule | %Inh (%)
FC(F)(F)c1ccccc1-c1cc(-c2c[nH]nc2-c2ccccn2)ccn1 | 17
COc1ccc2cc(-c3nc(-c4ccccc4C(C)C)[nH]c3-c3ccncc3)ccc2c1 | 11
CS(=O)(=O)CCNCc1nc(-c2ccc3ncnc(Nc4ccc(OCc5ccccc5)c(Cl)c4)c3c2)cs1.Cl | 17
Cc1nccc(-c2c(-c3ccc(F)cc3)ncn2CCCN2CCOCC2)n1.Cl | 27
Fc1ccc(-c2nc[nH]c2-c2ccncc2)cc1 | 25
COC(=O)C(Cc1ccccc1)NC(=O)NC1CCN(c2ccnc(Nc3ccc(F)cc3)n2)C1 (stereo not shown) | 21
CSc1ccc(-c2nc3n(c2-c2ccncc2)CCC3)cc1 | 0
Nc1nccc(-c2c(-c3ccc(F)cc3)ncn2C2CCN(Cc3ccccc3)CC2)n1 | 0
Cc1cnc(N)c(/C=C/c2cncc(C(=O)NCCc3ccc(Cl)cc3Cl)c2)c1.Cl | 7
Cc1ccc(NC(=O)Nc2ccc(Cl)c(C(F)(F)F)c2)cc1-c1ccc(C(=O)Nc2ccncc2)cc1 | 57
Cl.Cl.Cl.N#Cc1ccc(CCNc2nccc(-c3cccc(CN4CCNCC4)c3)n2)cc1 | 12
COc1cccc(CNC(=O)NC2CCN(c3ccnc(Nc4ccc(F)cc4)n3)C2)c1 (stereo not shown) | 11
COc1cccc(NC(=O)Nc2ccc(C)c(-c3ccc(C(=O)Nc4ccncc4)cc3)c2)c1 | 43
Fc1ccc(-c2nc3n(c2-c2ccncc2)CCS3)cc1 | 26
Fc1ccc(-c2nn3cccc(F)c3c2-c2ccncc2)cc1 | 18
CC(C)c1ccc(O)cc1Nc1ccnc2ccc(C(F)(F)F)cc12 | 22
Cc1cccc2c(-c3ccncn3)c(-c3ccc(F)cc3)nn12 | 17
CCn1c(-c2ccccc2)nc2cnccc21 | 18
COc1cc2ncnc(Nc3cccc(Br)c3)c2cc1OC.Cl | 66

###

Item-by-item account of %Inh
# Test system: MAK
# recorded.conditions: concentration: 1 μM, replicates: in singlicate; n = 1

compound | unit.text | %Inh
Cc1ccc(NC(=O)Nc2ccc(Cl)c(C(F)(F)F)c2)cc1-c1ccc(C(=O)Nc2ccncc2)cc1 [GSK1398470] | % | 15
CNc1nc(-c2ccc3c(N)n[nH]c3c2)cc(N2C[C@@H](C(=O)Nc3ccccc3)CC[C@H]2C)n1 [GSK2298859] | % | 9
Cc1ccc(NC(=O)Nc2ccc(Cl)cc2)cc1-c1ccc(C(=O)Nc2ccncc2)cc1 [GSK1398472] | % | 18
CC(C)c1cc(-c2ccc3c(N)n[nH]c3c2)nc(N)n1 [GSK2250882] | % | 0

###

# Test system: PIP5K2B
# recorded.conditions: concentration: 1 μM, replicates: in singlicate; n = 1

compound | %Inh / %
COc1ccc(Nc2nccc(-c3ccc(NC(=O)c4cc5cc(F)ccc5[nH]4)cc3)n2)cc1 [GSK1229496] | 17
Cl.Cl.Cl.N#Cc1ccc(CCNc2nccc(-c3cccc(CN4CCNCC4)c3)n2)cc1 [GSK2137462] | 0
CC(C)c1ccc(O)cc1Nc1ccnc2ccc(C(F)(F)F)cc12 [GW482059] | 7
O=C1NC(=O)C(c2ccc(Cl)cc2)=C1Nc1cccc(Cl)c1 [SB-317651] | 0
CC[C@@H]1CO[C@H](C(=O)Nc2ccccc2)CN1c1cc(-c2ccc3c(N)n[nH]c3c2)nc(NC)n1 [GSK2376236] | 3
CNc1nc(-c2ccc3c(N)n[nH]c3c2)cc(N2C[C@@H](C(=O)Nc3ccccc3)CC[C@H]2C)n1 [GSK2298859] | 0
COc1ccc(CSc2nnc(-c3ccc4c(c3)CCO4)o2)cc1 | 9
COC(=O)C(Cc1ccccc1)NC(=O)NC1CCN(c2ccnc(Nc3ccc(F)cc3)n2)C1 (centres unmarked) [GSK1379714] | 30
